Let's look at some molecules and their measured MIC.
- System: Staphylococcus aureus
- Test: Antibacterial activity against Staphylococcus aureus ATCC 6538 assessed as growth inhibition after 24 hrs by dilution tube method
- Format: functional
- Settings: ATCC 6538, 24 h
Property Measured: MIC (µg/mL)

Molecule Smiles | Relation | Result Value
C[N+](C)(CCCCCOc1ccc(Cl)cc1Cl)Cc1ccc(Br)o1.[Br-] | = | 25
Cc1cc(OCC[N+](C)(C)Cc2ccc(Br)o2)c(C(C)C)cc1Cl.[Br-] | = | 9
C[N+](C)(CCCCOc1ccc(Cl)cc1)Cc1ccc([N+](=O)[O-])o1.[Br-] | = | 100
C[N+](C)(CCCCCCCOc1c(Br)cc(Br)cc1Br)Cc1ccc([N+](=O)[O-])o1.[Br-] | = | 7.5
Cc1cc(OCCCCCC[N+](C)(C)Cc2ccc([N+](=O)[O-])o2)c(C(C)C)cc1Cl.[Br-] | > | 200

----------
Listed here are compounds together with their documented MIC.
- System: Cryptococcus neoformans
- Test: Antifungal activity against Cryptococcus neoformans 103 assessed as growth inhibition by agar dilution method
- Type: functional

Molecule Smiles | MIC [µg/mL]
C[N+](C)(CCCCCCOc1c(Br)cc(Br)cc1Br)Cc1ccc([N+](=O)[O-])o1.[Br-] | 100
C[N+](C)(CCCCCCCCCCCCOc1c(Br)cc(Br)cc1Br)Cc1ccc([N+](=O)[O-])o1.[Br-] | 200
C[N+](C)(CCCCCCOc1c(Br)cc(Br)cc1Br)Cc1ccco1.[Br-] | 25
Cc1cc(OCCCCCCCC[N+](C)(C)Cc2ccc([N+](=O)[O-])o2)c(C(C)C)cc1Cl.[Br-] | 4
Cc1cc(OCCCCCCC[N+](C)(C)Cc2ccc([N+](=O)[O-])o2)c(C(C)C)cc1Cl.[Br-] | 4

----------
- Tested on: Agrobacterium tumefaciens
- Test: Antibacterial activity against Agrobacterium tumefaciens NRRL B-36 assessed as growth inhibition after 24 hrs by dilution tube method
- Format: functional
- Settings: NRRL B-36, 24 h
Response field label: string, one of 1.0 (MIC strictly below 50 µg/mL) or 0.0.

Molecule Smiles | Category Label
Cc1cc(OCCCCCCCCCCCCCC[N+](C)(C)Cc2ccc(Br)o2)c(C(C)C)cc1Cl.Cc1ccc(S(=O)(=O)[O-])cc1 | 0.0
C[N+](C)(CCOc1c(Br)cc(Br)cc1Br)Cc1ccc(Br)o1.[Br-] | 0.0
Cc1cc(OCCCCCCC[N+](C)(C)Cc2ccc([N+](=O)[O-])o2)c(C(C)C)cc1Cl.[Br-] | 1.0
Cc1cc(OCCCCCCCC[N+](C)(C)Cc2ccc(Br)o2)c(C(C)C)cc1Cl.Cc1ccc(S(=O)(=O)[O-])cc1 | 0.0
C[N+](C)(CCOc1ccc(Cl)cc1Cl)Cc1ccc(Br)o1.[Br-] | 0.0
C[N+](C)(CCCCCCCOc1c(Br)cc(Br)cc1Br)Cc1ccc([N+](=O)[O-])o1.[Br-] | 1.0
C[N+](C)(CCCOc1c(Br)cc(Br)cc1Br)Cc1ccc([N+](=O)[O-])o1.[Br-] | 0.0
Cc1cc(OCCC[N+](C)(C)Cc2ccc([N+](=O)[O-])o2)c(C(C)C)cc1Cl.[Br-] | 1.0
C[N+](C)(CCCCCCCCCCCCOc1c(Br)cc(Br)cc1Br)Cc1ccc([N+](=O)[O-])o1.[Br-] | 0.0
Cc1cc(OCC[N+](C)(C)Cc2ccc([N+](=O)[O-])o2)c(C(C)C)cc1Cl.Cc1ccc(S(=O)(=O)[O-])cc1 | 0.0
C[N+](C)(CCCCCOc1ccc(Cl)cc1)Cc1ccc(Br)o1.[Br-] | 0.0
C[N+](C)(CCCCCCCCCCOc1c(Br)cc(Br)cc1Br)Cc1ccc(Br)o1.[Br-] | 1.0
Cc1cc(OCCCCCCCC[N+](C)(C)Cc2ccc([N+](=O)[O-])o2)c(C(C)C)cc1Cl.[Br-] | 1.0
Cc1cc(OCCCC[N+](C)(C)Cc2ccco2)c(C(C)C)cc1Cl.[Br-] | 1.0
C[N+](C)(CCCCOc1ccc(Cl)cc1)Cc1ccc(Br)o1.[Br-] | 0.0
C[N+](C)(CCCCOc1ccccc1Cl)Cc1ccc([N+](=O)[O-])o1.[Br-] | 0.0
C[N+](C)(CCCCCOc1c(Br)cc(Br)cc1Br)Cc1ccco1.[Br-] | 0.0
Cc1ccc(C[N+](C)(C)CCOc2c(Br)cc(Br)cc2Br)o1.[Br-] | 0.0
Cc1cc(OCCC[N+](C)(C)Cc2ccc(Br)o2)c(C(C)C)cc1Cl.[Br-] | 1.0
Cc1cc(OCCCCCCCCCCCC[N+](C)(C)Cc2ccc([N+](=O)[O-])o2)c(C(C)C)cc1Cl.Cc1ccc(S(=O)(=O)[O-])cc1 | 0.0
C[N+](C)(CCCCCCCCCCCCOc1c(Br)cc(Br)cc1Br)Cc1ccc(Br)o1.[Br-] | 0.0
Cc1cc(OCC[N+](C)(C)Cc2ccc(Br)o2)c(C(C)C)cc1Cl.[Br-] | 1.0
C[N+](C)(CCCCCOc1c(Br)cc(Br)cc1Br)Cc1ccc(Br)o1.[Br-] | 1.0
Cc1cc(OCCCCC[N+](C)(C)Cc2ccc(Br)o2)c(C(C)C)cc1Cl.[Br-] | 1.0
Cc1ccc(C[N+](C)(C)CCCCCCOc2c(Br)cc(Br)cc2Br)o1.[Br-] | 1.0
C[N+](C)(CCCCCOc1ccccc1Cl)Cc1ccc(Br)o1.[Br-] | 0.0
C[N+](C)(CCOc1ccc(Cl)cc1Cl)Cc1ccc([N+](=O)[O-])o1.[Br-] | 0.0
Cc1ccc(C[N+](C)(C)CCCCCOc2c(Br)cc(Br)cc2Br)o1.[Br-] | 1.0
C[N+](C)(CCCCCCCCOc1c(Br)cc(Br)cc1Br)Cc1ccc(Br)o1.[Br-] | 1.0
O=C1CN(/N=C/c2ccc([N+](=O)[O-])o2)C(=O)N1 | 1.0
Cc1cc(OCCCCC[N+](C)(C)Cc2ccc([N+](=O)[O-])o2)c(C(C)C)cc1Cl.[Br-] | 1.0
C[N+](C)(CCCCCCCCCCCCCCOc1c(Br)cc(Br)cc1Br)Cc1ccc(Br)o1.Cc1ccc(S(=O)(=O)[O-])cc1 | 0.0
